STUDY SYSTEM: FcγRIIIa V176
ASSAY TEXT: Surface plasmon resonance (Biacore) binding of mAb3 from treated cultures to FcγRIIIa
CONDITIONS USED: mAb3 from culture fed with 800 μM additive, day 5
pKd: −log10 of the molar value.

- COMPOUND: "C[C@@H]1SC(O)[C@@H](O)[C@H](O)[C@@H]1O (stereo partly shown)"
  pKd: 7.40
